Cited source for all entries: patent US12325697B2

target: Recombinant human Cbl-b (aa 36-427) (Homo sapiens (Human), UniProt Q13191); assay: Cbl-b Biochemical Assay (TR-FRET); conditions: read-out: TR-FRET hCbl-b IC50
Sequence (Q13191 36-427): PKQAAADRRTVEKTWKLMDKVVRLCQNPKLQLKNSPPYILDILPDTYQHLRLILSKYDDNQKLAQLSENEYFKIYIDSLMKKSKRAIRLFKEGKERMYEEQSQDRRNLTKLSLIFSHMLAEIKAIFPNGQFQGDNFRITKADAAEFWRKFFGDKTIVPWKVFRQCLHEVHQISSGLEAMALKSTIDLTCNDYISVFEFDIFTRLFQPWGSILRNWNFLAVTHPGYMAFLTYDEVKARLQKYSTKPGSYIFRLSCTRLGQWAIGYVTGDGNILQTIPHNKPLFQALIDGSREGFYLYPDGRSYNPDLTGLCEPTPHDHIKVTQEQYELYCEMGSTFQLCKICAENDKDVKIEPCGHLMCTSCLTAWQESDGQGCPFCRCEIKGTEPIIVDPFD
For each entry below, report its IC50 value.

Please fill in: IC50 reported for `CCn1ccc2c(-c3ccccc3-c3nncn3C)cc(N3Cc4c(cccc4C(F)(F)F)C3=O)nc21` = 1 to 10 µM

Please fill in: IC50 reported for `C=C(C)c1cc(-c2ccc(F)cc2-c2nncn2C)cc(N2Cc3ccc(CNCC4(O)CCC4)cc3C2=O)n1` = ≤ 0.2 µM

Please fill in: IC50 reported for `C[C@H](Cc1nncn1C)c1cc(Cl)nc(N2Cc3c(cccc3C(F)(F)F)C2=O)c1` = 1 to 10 µM

Please fill in: IC50 reported for `CN1CC[C@@H](COCc2cc3c(c(C(F)(F)F)c2)CN(c2cc(-c4ccc(F)cc4-c4nncn4C)cc(C4CC4)n2)C3=O)C1` = ≤ 0.2 µM

Please fill in: IC50 reported for `CCOc1cc(N2Cc3c(cccc3C(F)(F)F)C2=O)cc(C2(Cc3nncn3C)COC2)c1` = 0.2 to 1 µM

Please fill in: IC50 reported for `Cn1cnnc1-c1cnn(C)c1-c1cc(Cl)nc(N2Cc3c(cc(CN4CCC5(CC5)C4)cc3C(F)(F)F)C2=O)c1` = 0.2 to 1 µM

Please fill in: IC50 reported for `Cn1cnnc1-c1cc(F)ccc1-c1cc(C2CC2)nc(N2Cc3ccc(CNCC4(O)CCCC4)cc3C2=O)c1` = ≤ 0.2 µM

Please fill in: IC50 reported for `Cn1cnnc1-c1cc(C#N)ccc1-c1cc(C2CC2)nc(N2Cc3c(F)cc(CNC4CC4)cc3C2=O)c1` = ≤ 0.2 µM

Please fill in: IC50 reported for `COCCNCc1cc2c(c(F)c1F)CN(c1cc(-c3ccc(C#N)cc3-c3nncn3C)cc(C3CC3)n1)C2=O` = ≤ 0.2 µM

Please fill in: IC50 reported for `Cn1cnnc1-c1cc(C(N)=O)ccc1-c1cccc(N2Cc3c(cccc3C(F)(F)F)C2=O)c1` = 1 to 10 µM

Please fill in: IC50 reported for `Cn1cnnc1-c1cc(C#N)ccc1-c1cc(C2CC2)nc(N2Cc3ccc(CN[C@@H]4CCC[C@@H]4O)cc3C2=O)c1` = ≤ 0.2 µM

Please fill in: IC50 reported for `Cn1cnnc1-c1cc(C#N)ccc1-c1cc(C2CC2)nc(N2Cc3c(F)cc(CNCC4(F)CCC4)cc3C2=O)c1` = ≤ 0.2 µM

Please fill in: IC50 reported for `CNC[C@H](O)COc1ccc2c(c1)C(=O)N(c1cc(-c3ccc(C#N)cc3-c3nncn3C)cc(C3CC3)n1)C2` = ≤ 0.2 µM

Please fill in: IC50 reported for `CCNc1cc(-c2ccc(F)cc2-c2nncn2C)cc(N2Cc3c(cc(COCCO)cc3C(F)(F)F)C2=O)n1` = ≤ 0.2 µM

Please fill in: IC50 reported for `CC[C@H](O)CNCc1ccc2c(c1)C(=O)N(c1cc(-c3ccc(C#N)cc3-c3nncn3C)cc(C3CC3)n1)C2` = ≤ 0.2 µM

###

target: Recombinant human Cbl-b (aa 36-427) (Homo sapiens (Human), UniProt Q13191); test: Cbl-b Biochemical Assay (TR-FRET); conditions: read-out: TR-FRET hCbl-b IC50
pIC50: −log10 of the molar value.
quantity-name: pIC50

Please fill in: pIC50 reported for `Cn1cnnc1-c1cc(C#N)ccc1-c1cccc(N2Cc3c(cc(CNCC4(O)CCC4)cc3C(F)(F)F)C2=O)c1` = ≥ 6.70

Please fill in: pIC50 reported for `CCNc1cc(-c2c(-c3nncn3C)cnn2C)cc(N2Cc3c(cc(CO[C@H]4CCC[C@H]4O)cc3C(F)(F)F)C2=O)n1` = ≥ 6.70

Please fill in: pIC50 reported for `CCNc1cc(-c2ccccc2-c2nncn2C)cc(N2Cc3c(cc(CN[C@@H]4CCC[C@H]4O)cc3C(F)(F)F)C2=O)n1` = ≥ 6.70

Please fill in: pIC50 reported for `Cn1cnnc1-c1cc(C#N)ccc1-c1cc(C2CC2)nc(N2Cc3ccc(CNCC4(C)CCC4)cc3C2=O)c1` = ≥ 6.70

Please fill in: pIC50 reported for `CCOc1cc(-c2c(-c3nncn3C)cnn2C)cc(N2Cc3c(cccc3C(F)(F)F)C2=O)c1` = 6.00 to 6.70

Please fill in: pIC50 reported for `CCNc1cc(-c2c(-c3nncn3C)cnn2C)cc(N2Cc3c(cc(CN(C)CC4(OC)CCC4)cc3C(F)(F)F)C2=O)n1` = ≥ 6.70

Please fill in: pIC50 reported for Cn1cnnc1-c1cc(C#N)ccc1-c1cc(C2CC2)nc(N2Cc3ccc([C@@H]4COC[C@H](C5CCC5)N4)cc3C2=O)c1 (stereo in doubt) = ≥ 6.70
